Each record here notes measured composite z-score.
- Test system: Sonic hedgehog protein (Shh)
- method_notes: Sonic hedgehog microarray binding compounds – biochemical, small-molecule microarray, 635/667 nm fluorescence, primary screen (AID 1151);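 also: Shh protein binding to compounds spotted on small-molecule microarray slides; score combines spot fluorescence intensity with signal-to-noise across triplicate slides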
- test_settings: 635 nm fluorescence, higher = more signal
measured_parameter: composite z-score

{"columns": ["molecule", "readout_value"],
 "data": [
  ["C=C(CCCC)C(=O)CC[C@@H](OC(=O)c1ccccc1-c1ccccc1C(=O)O)c1ccc(CO)o1", 1.08],
  ["COC(=O)[C@@]1(Cc2ccccc2)[C@H]2c3cc(C(=O)N(C)C)n(Cc4ccccc4)c3C[C@H]2CN1C(=O)c1ccccc1", -0.867],
  ["Cc1ccc([C@H]2C(C(=O)O)=C[C@@H](C(C)C)N2S(=O)(=O)c2ccc(C)cc2)cc1", -0.542],
  ["COc1c(C)cc(-c2cc3c(c(-c4ccccc4)n2)[Si](C(C)C)(C(C)C)O[C@H]3c2ccccc2)cc1C", 0.618]
]}

* * *

Some compounds, each annotated with its measured composite z-score.
- System: PRMT1 (protein arginine N-methyltransferase 1)
- method_notes: small molecules binding arginine methyltransferase PRMT1 – biochemical, small-molecule microarray, 635 nm fluorescence, primary screen (AID 1088);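 also: binding of Prmt1 protein to compounds spotted on small-molecule microarray slides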
- test_settings: higher = more signal

{"columns": ["molecule", "composite z-score"],
 "data": [
  ["C=CCOC(=O)[C@@H]1[C@H]2C(=O)O[C@H](c3ccccc3)[C@H](c3ccccc3)N2[C@H](c2ccc(OCCOC(=O)[C@H]3C[C@H]4C(=O)N[C@@H](CC(C)C)C(=O)N4[C@H]3c3cccc(OCCO)c3)cc2)[C@@]12C(=O)Nc1ccc(I)cc12", 1.53],
  ["CC(C)CNC(=O)[C@@]1(C)c2ccccc2C(=O)N(C(C)C)[C@H]1c1ccc(CO)cc1", -1.32],
  ["COC(=O)[C@@]1(Cc2ccc(F)cc2)[C@H]2c3cc(C(=O)N(C)C)n(Cc4ccccn4)c3C[C@H]2CN1C(=O)c1ccccc1", 0.837],
  ["CN(C)CCCCNC(=O)[C@@H]1C[C@@H]2C(=O)N[C@@H](CCCCN)C(=O)N2[C@@H]1c1cccc(OCCO)c1", 1.02],
  ["COc1ccc([Si](C)(C)[C@H]2[C@H](CCO)O[C@@]3(C(=O)N(Cc4cccc(N5C(=O)c6cccc7cccc5c67)c4)c4ccccc43)[C@@H]2C)cc1", 1.16],
  ["COc1ccc([Si](C)(C)[C@H]2[C@H](CC(=O)N3CCC[C@H]3CO)O[C@@]3(C(=O)N(Cc4cccc(N5CCC5=O)c4)c4ccccc43)[C@@H]2C)cc1", 1.55],
  ["O=C(NCc1ccccc1)[C@@H]1c2ccccc2C(=O)N(Cc2cc(F)cc(C(F)(F)F)c2)[C@H]1c1ccc(CO)cc1", 1.49],
  ["C[N+](C)(C)CCCC[C@@H]1NC(=O)[C@@H]2C[C@H](C(=O)NCCCCCCNC(=O)CS)[C@H](c3cccc(OCCO)c3)N2C1=O", 1.12],
  ["COC(=O)C(CC#Cc1ccc2c(c1)[C@]1(C(=O)N2)[C@H](C(=O)N2CCCCCCC2)[C@H]2C(=O)O[C@H](c3ccccc3)[C@H](c3ccccc3)N2[C@@H]1c1ccccc1OCCO)C(=O)OC", 1.54]
]}

* * *

- measured_on: Follistatin (Homo sapiens)
- method_notes: FST protein binding to printed compounds – biochemical, small-molecule microarray, 635/667 nm fluorescence, primary screen (AID 1132)
- test_settings: 635 nm fluorescence, higher = more signal

{"columns": ["compound", "composite z-score"],
 "data": [
  ["[N-]=[N+]=NCc1ccccc1C[C@@]1(C(=O)NCc2ccccc2)N=C(c2ccc(OCCCO)cc2)O[C@@H]1c1ccccc1CN=[N+]=[N-]", 0.557],
  ["COCCOC(=O)N1C(=O)[C@@]2(c3cc(C#CC4=CCCCC4)ccc31)[C@H](c1ccc(OCCO)cc1)N1[C@H](c3ccccc3)[C@H](c3ccccc3)OC(=O)[C@H]1[C@@H]2C(=O)Nc1nc2ccccc2s1", 1.19],
  ["C=C(C(=O)CC[C@@H](OC(C)=O)c1ccc(OCCO)cc1)C(C)C", 0.627],
  ["CCN(CC)c1ccc(N2CC=CC34O[C@@H]5/C=C\\CCC(C)OC(=O)C5[C@H]3C(=O)N(CCCCCCO)[C@@H]4C2=O)cc1 (some centres not stated)", -0.371],
  ["O=C1NC(=O)C2C1C=CC(C(O)c1cccs1)N2Nc1ccccn1 (configuration not stated)", 0.131],
  ["CC(C)[Si]1(C(C)C)O[C@@H](c2ccccc2)c2cc(-c3ccc(-c4ccc(Cl)c(Cl)c4)o3)nc(CCc3ccccc3)c21", -2.16],
  ["C=CCNC(=O)[C@H]1[C@@H]2C(=O)O[C@@H](c3ccccc3)[C@@H](c3ccccc3)N2[C@@H](c2ccc(OCCO)cc2)[C@]12C(=O)N(C(=O)OCCOC)c1ccc(C#CC3(O)CCCCCC3)cc12", 1.36]
]}
